# Test system: Rattus norvegicus
# experiment: Biodistribution in uterus of immature female rat after 5 hour administration of 3 micro Ci (111 kBq) in the absence of 60 microg estradiol
# Assay type: ADME, organism-based
# condition_summary: in vivo
experimental_readout: ID/g (%)
The figure you give is taken to be in %; do not add the unit.

Give the measured ID/g for C[C@@H]1Cc2cc(O)c(F)cc2[C@H]2CC[C@@]3(C)[C@@H](CC[C@@]3(O)/C=C/I)[C@H]12 0.63

Read the entry C[C@]12CC[C@@H]3c4ccc(O)c(F)c4CC[C@H]3[C@@H]1CC[C@@]2(O)/C=C/I and write its reported ID/g. 1.82

Please indicate ID/g recorded for C[C@@H]1Cc2c(ccc(O)c2F)[C@H]2CC[C@@]3(C)[C@@H](CC[C@@]3(O)/C=C/I)[C@H]12 6.44

* * *

# System: Rattus norvegicus
# experiment: Biodistribution in lungs of immature female rat after 3 hour administration of 3 micro Ci (111 kBq) in the absence of 60 microg estradiol
# Type: ADME, organism-based, Lung
# condition_summary: in vivo
experimental_readout: ID/g (%)
Report only the number, with the unit % understood.

Please give the documented ID/g of C[C@]12CC[C@@H]3c4ccc(O)c(F)c4CC[C@H]3[C@@H]1CC[C@@]2(O)/C=C\I 0.85

Give me measured ID/g, please, for this molecule: C[C@]12CC[C@@H]3c4ccc(O)c(F)c4CC[C@H]3[C@@H]1CC[C@@]2(O)/C=C/I 0.57

For the molecule C[C@@H]1Cc2cc(O)c(F)cc2[C@H]2CC[C@@]3(C)[C@@H](CC[C@@]3(O)/C=C/I)[C@H]12 , give its reported ID/g. 0.28

Using the record for C[C@]12CC[C@@H]3c4cc(F)c(O)cc4CC[C@H]3[C@@H]1CC[C@@]2(O)/C=C\I , state its measured ID/g. 0.39

Name the recorded ID/g of the item C[C@@H]1Cc2c(ccc(O)c2F)[C@H]2CC[C@@]3(C)[C@@H](CC[C@@]3(O)/C=C\I)[C@H]12 in your answer. 0.46

Give ID/g for the following molecule: CO[C@H]1C[C@@]2(C)[C@@H](CC[C@@]2(O)/C=C/I)[C@@H]2CCc3cc(O)c(F)cc3[C@H]21 0.62

Report measured ID/g; entry is C[C@@H]1Cc2cc(O)c(F)cc2[C@H]2CC[C@@]3(C)[C@@H](CC[C@@]3(O)/C=C\I)[C@H]12 0.36

Quote ID/g reported for C[C@]12CC[C@@H]3c4cc(F)c(O)cc4CC[C@H]3[C@@H]1CC[C@@]2(O)/C=C/I please. 0.48

Tell us which ID/g value is on record for CO[C@H]1C[C@@]2(C)[C@@H](CC[C@@]2(O)/C=C\I)[C@@H]2CCc3c(ccc(O)c3F)[C@H]21 0.66

Look up and state reported ID/g for C[C@@H]1Cc2c(ccc(O)c2F)[C@H]2CC[C@@]3(C)[C@@H](CC[C@@]3(O)/C=C/I)[C@H]12 0.93

* * *

Would you mind telling me the reported uterus-to-nontarget tissue uptake ratio of each entry?
# Tested on: Rattus norvegicus
# experiment: Biodistribution in uterus / spleen, muscle, lungs of immature female rat after 1 hr administration of 3 micro Ci (111 kBq) in the presence of (+E2)
# Assay type: ADME, organism-based
# condition_summary: in vivo
Field: numeric (%). Do not append units.

Tell me its uterus-to-nontarget tissue uptake ratio given CO[C@H]1C[C@@]2(C)[C@@H](CC[C@@]2(O)/C=C\I)[C@@H]2CCc3c(ccc(O)c3F)[C@H]21 as the entry. 1.11

For the molecule CO[C@H]1C[C@@]2(C)[C@@H](CC[C@@]2(O)/C=C/I)[C@@H]2CCc3cc(O)c(F)cc3[C@H]21 , give its measured uterus-to-nontarget tissue uptake ratio value. 0.86

Name the recorded uterus-to-nontarget tissue uptake ratio of the molecule listed here: C[C@]12CC[C@@H]3c4ccc(O)c(F)c4CC[C@H]3[C@@H]1CC[C@@]2(O)/C=C\I 1.21

Tell me uterus-to-nontarget tissue uptake ratio reported for C[C@@H]1Cc2c(ccc(O)c2F)[C@H]2CC[C@@]3(C)[C@@H](CC[C@@]3(O)/C=C\I)[C@H]12 0.88

Supply recorded uterus-to-nontarget tissue uptake ratio for C[C@]12CC[C@@H]3c4ccc(O)c(F)c4CC[C@H]3[C@@H]1CC[C@@]2(O)/C=C/I here. 1.17

Given the molecule C[C@@H]1Cc2cc(O)c(F)cc2[C@H]2CC[C@@]3(C)[C@@H](CC[C@@]3(O)/C=C\I)[C@H]12 , write its reported uterus-to-nontarget tissue uptake ratio. 0.76

Return the recorded uterus-to-nontarget tissue uptake ratio value; entry: C[C@@H]1Cc2c(ccc(O)c2F)[C@H]2CC[C@@]3(C)[C@@H](CC[C@@]3(O)/C=C/I)[C@H]12 0.85

Tell us which uterus-to-nontarget tissue uptake ratio value is on record for C[C@@H]1Cc2cc(O)c(F)cc2[C@H]2CC[C@@]3(C)[C@@H](CC[C@@]3(O)/C=C/I)[C@H]12 1.09

// fetch uterus-to-nontarget tissue uptake ratio given entry C[C@]12CC[C@@H]3c4cc(F)c(O)cc4CC[C@H]3[C@@H]1CC[C@@]2(O)/C=C\I 0.51

* * *

# Test system: Rattus norvegicus
# experiment: Biodistribution in thyroid of immature female rat after 1 hr administration of 3 micro Ci (111 kBq) in the absence of 60 microg estradiol
# Type: ADME, organism-based, Thyroid gland
# condition_summary: in vivo
experimental_readout: ID/g

State its ID/g: C[C@@H]1Cc2c(ccc(O)c2F)[C@H]2CC[C@@]3(C)[C@@H](CC[C@@]3(O)/C=C\I)[C@H]12 145%

Fill in reported ID/g for this entry: C[C@@H]1Cc2c(ccc(O)c2F)[C@H]2CC[C@@]3(C)[C@@H](CC[C@@]3(O)/C=C/I)[C@H]12 61%

Input C[C@]12CC[C@@H]3c4cc(F)c(O)cc4CC[C@H]3[C@@H]1CC[C@@]2(O)/C=C/I , output reported ID/g. 27%

Give the reported value of ID/g for this record: C[C@@H]1Cc2cc(O)c(F)cc2[C@H]2CC[C@@]3(C)[C@@H](CC[C@@]3(O)/C=C/I)[C@H]12 78%

Please give measured ID/g of the following entry: C[C@]12CC[C@@H]3c4ccc(O)c(F)c4CC[C@H]3[C@@H]1CC[C@@]2(O)/C=C\I 42.2%

Note ID/g for the compound shown: CO[C@H]1C[C@@]2(C)[C@@H](CC[C@@]2(O)/C=C/I)[C@@H]2CCc3cc(O)c(F)cc3[C@H]21 224%

Give the reported value of ID/g for this record: CO[C@H]1C[C@@]2(C)[C@@H](CC[C@@]2(O)/C=C\I)[C@@H]2CCc3c(ccc(O)c3F)[C@H]21 551%

* * *

What uterus to blood %ID/g ratio (unitless) was measured for each of the following?
# Tested on: Rattus norvegicus
# experiment: Biodistribution in uterus / blood of immature female rat after 3 hour administration of 3 micro Ci (111 kBq) in the absence of 60 microg estradiol
# Type: ADME, organism-based
# condition_summary: in vivo
Use % as the unit, but write only the number.

Please indicate uterus to blood %ID/g ratio (unitless) recorded for C[C@@H]1Cc2cc(O)c(F)cc2[C@H]2CC[C@@]3(C)[C@@H](CC[C@@]3(O)/C=C/I)[C@H]12 4.11

Please report uterus to blood %ID/g ratio (unitless) for the following compound: C[C@]12CC[C@@H]3c4ccc(O)c(F)c4CC[C@H]3[C@@H]1CC[C@@]2(O)/C=C/I 4.56

Consider the compound C[C@]12CC[C@@H]3c4ccc(O)c(F)c4CC[C@H]3[C@@H]1CC[C@@]2(O)/C=C\I . State its measured uterus to blood %ID/g ratio (unitless). 17.08

// Input: C[C@@H]1Cc2c(ccc(O)c2F)[C@H]2CC[C@@]3(C)[C@@H](CC[C@@]3(O)/C=C/I)[C@H]12 . Output its uterus to blood %ID/g ratio (unitless) only. 17.28

Look up uterus to blood %ID/g ratio (unitless) of C[C@@H]1Cc2c(ccc(O)c2F)[C@H]2CC[C@@]3(C)[C@@H](CC[C@@]3(O)/C=C\I)[C@H]12 and report it. 10.6

Input CO[C@H]1C[C@@]2(C)[C@@H](CC[C@@]2(O)/C=C\I)[C@@H]2CCc3c(ccc(O)c3F)[C@H]21 , output reported uterus to blood %ID/g ratio (unitless). 13.35

Give the measured uterus to blood %ID/g ratio (unitless) for C[C@@H]1Cc2cc(O)c(F)cc2[C@H]2CC[C@@]3(C)[C@@H](CC[C@@]3(O)/C=C\I)[C@H]12 14.81

Name the recorded uterus to blood %ID/g ratio (unitless) of the compound listed here: C[C@]12CC[C@@H]3c4cc(F)c(O)cc4CC[C@H]3[C@@H]1CC[C@@]2(O)/C=C/I 1.4

Determine its reported uterus to blood %ID/g ratio (unitless): CO[C@H]1C[C@@]2(C)[C@@H](CC[C@@]2(O)/C=C/I)[C@@H]2CCc3cc(O)c(F)cc3[C@H]21 8.28

Output uterus to blood %ID/g ratio (unitless) of C[C@]12CC[C@@H]3c4cc(F)c(O)cc4CC[C@H]3[C@@H]1CC[C@@]2(O)/C=C\I 12.98
